Target: Glutamate receptor 1 (Rattus norvegicus, UniProt P19490)
Sequence (P19490 whole entry): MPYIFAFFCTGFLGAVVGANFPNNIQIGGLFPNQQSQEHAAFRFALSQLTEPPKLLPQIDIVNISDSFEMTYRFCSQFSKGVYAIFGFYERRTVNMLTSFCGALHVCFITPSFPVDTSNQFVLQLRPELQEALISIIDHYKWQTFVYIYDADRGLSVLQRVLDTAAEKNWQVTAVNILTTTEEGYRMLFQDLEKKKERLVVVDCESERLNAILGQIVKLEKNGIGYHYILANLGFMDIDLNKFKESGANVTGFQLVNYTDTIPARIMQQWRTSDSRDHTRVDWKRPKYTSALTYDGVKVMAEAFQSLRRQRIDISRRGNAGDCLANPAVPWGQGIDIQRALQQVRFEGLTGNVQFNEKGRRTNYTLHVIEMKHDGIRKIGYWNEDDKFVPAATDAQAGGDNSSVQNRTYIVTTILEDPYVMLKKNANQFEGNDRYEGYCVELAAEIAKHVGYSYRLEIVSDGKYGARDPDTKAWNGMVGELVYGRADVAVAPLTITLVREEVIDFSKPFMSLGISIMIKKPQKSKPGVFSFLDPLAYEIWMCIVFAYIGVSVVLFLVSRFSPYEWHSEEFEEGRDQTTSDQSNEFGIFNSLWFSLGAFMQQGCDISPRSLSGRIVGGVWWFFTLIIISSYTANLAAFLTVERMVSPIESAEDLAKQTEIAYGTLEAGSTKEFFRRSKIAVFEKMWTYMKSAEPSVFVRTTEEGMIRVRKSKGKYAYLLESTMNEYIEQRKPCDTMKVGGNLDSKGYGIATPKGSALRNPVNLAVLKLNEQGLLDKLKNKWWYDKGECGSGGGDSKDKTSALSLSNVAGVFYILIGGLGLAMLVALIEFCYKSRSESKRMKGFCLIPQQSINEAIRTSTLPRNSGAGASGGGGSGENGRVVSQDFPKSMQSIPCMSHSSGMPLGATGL
Assay: Inhibition of rat GluA1 expressed in xenopus laevis oocytes assessed as inhibition of glutamate-evoked current at membrane potential of -60 mV by voltage-clamp electrophysiology
readout.type: pIC50
Numbers only, as −log10 of the molar value.

Prompt: Form field: reported pIC50 of `N=C(N)NCCC[C@H](N)C(=O)NCCCNCCCNCCCCCNC(=O)[C@H](CC(N)=O)NC(=O)Cc1ccc(O)cc1O`
Response: 7.11

----------
Target: Glutamate NMDA receptor; Grin1/Grin2a (Rattus norvegicus, UniProt P35439+Q00959)
Sequence (Q00959 whole entry, other chains not shown): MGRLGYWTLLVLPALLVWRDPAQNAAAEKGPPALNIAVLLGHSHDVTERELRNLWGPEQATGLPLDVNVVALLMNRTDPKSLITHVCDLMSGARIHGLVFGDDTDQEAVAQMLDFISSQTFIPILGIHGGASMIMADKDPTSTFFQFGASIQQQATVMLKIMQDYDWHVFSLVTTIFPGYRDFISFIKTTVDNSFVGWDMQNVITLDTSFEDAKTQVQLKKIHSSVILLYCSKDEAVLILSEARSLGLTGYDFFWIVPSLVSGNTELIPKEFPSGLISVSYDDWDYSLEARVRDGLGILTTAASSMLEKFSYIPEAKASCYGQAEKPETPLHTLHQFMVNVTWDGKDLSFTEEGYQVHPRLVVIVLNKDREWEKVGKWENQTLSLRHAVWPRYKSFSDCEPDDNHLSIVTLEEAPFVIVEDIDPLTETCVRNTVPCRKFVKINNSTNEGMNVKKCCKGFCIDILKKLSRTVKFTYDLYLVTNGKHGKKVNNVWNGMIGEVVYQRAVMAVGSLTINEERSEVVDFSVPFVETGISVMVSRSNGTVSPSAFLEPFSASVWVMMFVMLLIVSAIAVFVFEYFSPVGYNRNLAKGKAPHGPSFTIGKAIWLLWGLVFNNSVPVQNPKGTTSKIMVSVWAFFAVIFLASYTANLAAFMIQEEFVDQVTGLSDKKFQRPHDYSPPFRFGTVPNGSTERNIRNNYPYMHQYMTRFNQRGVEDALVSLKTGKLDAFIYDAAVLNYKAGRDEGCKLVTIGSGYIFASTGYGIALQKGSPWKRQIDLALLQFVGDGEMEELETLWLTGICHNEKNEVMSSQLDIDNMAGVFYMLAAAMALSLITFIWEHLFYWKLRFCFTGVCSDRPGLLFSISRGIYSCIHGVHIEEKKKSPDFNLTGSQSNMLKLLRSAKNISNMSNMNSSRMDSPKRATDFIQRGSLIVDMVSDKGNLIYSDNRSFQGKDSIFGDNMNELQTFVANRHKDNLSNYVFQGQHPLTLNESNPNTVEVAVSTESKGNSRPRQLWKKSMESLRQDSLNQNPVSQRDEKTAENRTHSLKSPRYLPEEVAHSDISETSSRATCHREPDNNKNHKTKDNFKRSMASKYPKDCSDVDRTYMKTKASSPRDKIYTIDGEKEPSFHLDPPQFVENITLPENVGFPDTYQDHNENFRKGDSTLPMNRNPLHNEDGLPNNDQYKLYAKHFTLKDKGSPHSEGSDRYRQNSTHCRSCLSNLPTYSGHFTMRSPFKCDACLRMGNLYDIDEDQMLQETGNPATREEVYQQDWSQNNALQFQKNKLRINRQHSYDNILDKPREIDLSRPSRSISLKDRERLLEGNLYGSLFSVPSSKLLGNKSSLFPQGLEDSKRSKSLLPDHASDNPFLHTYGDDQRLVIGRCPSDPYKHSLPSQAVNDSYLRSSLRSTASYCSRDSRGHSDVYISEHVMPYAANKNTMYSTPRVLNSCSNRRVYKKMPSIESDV
Experiment: Inhibition of rat GluN1/2A expressed in xenopus laevis oocytes assessed as inhibition of glycine-evoked current at membrane potential of -60 mV by voltage-clamp electrophysiology
readout.type: pIC50
Answers are plain numbers, as −log10 of the molar value.

Prompt: Form field: reported pIC50 of `N=C(N)NCCC[C@H](N)C(=O)NCCCNCCCNCCCCCNC(=O)[C@H](CC(N)=O)NC(=O)Cc1ccc(O)cc1O`
Response: 7.13
